The values you see were collected from the supplement of paper PMC10899765.

- Test system: MCF10A
- experimental.details: 5+ nucleoli phenotype percent effect (relative to siNT 0% and siKIF11 100%); higher = more cells with five or more nucleoli
- conditions.used: 20 nM; 72 h
metric.name: 5+ nucleoli phenotype percent effect (%)
Entry rule: numbers only, all in %.

Tell me the measured 5+ nucleoli phenotype percent effect of UGGGCCAGGGAGCAGCUGGUGGG [hsa-miR-4640-5p] , please. 7.66

Subsequent entry: CCCUCUCUGGCUCCUCCCCAAA [hsa-miR-4723-3p] 50.7

Entry UACUCCAGAGGGCGUCACUCAUG [hsa-miR-508-5p] please 0.947

Same lookup for AUUUGUGCUUGGCUCUGUCAC [hsa-miR-2113] , please. 9.63

Moving on to the next sequence: AAAAGUAAUCGCGGUUUUUGUC [hsa-miR-548h-5p] 35.8

For AGGAAACAGGGACCCA [hsa-miR-4261] then? -16.8

And for CUAUACGACCUGCUGCCUUUCU [hsa-let-7d-3p] ? 18.1

Quick one: AGGGGGCGCAGUCACUGACGUG [hsa-miR-4697-5p] -0.0636

Repeat with UGGCAAACGUGGAAGCCGAGA [hsa-miR-4470] -21.5

Follow-up item: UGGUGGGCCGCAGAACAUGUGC [hsa-miR-654-5p] -8.23

Could you do the same for AAACUAAUAUACCCAUAUUCUG [hsa-miR-5583-5p] , please? 35.5

Subsequent entry: AAAAGUAAUUGCAGUUUUUGC [hsa-miR-548ar-5p] 22.8

Also UGCCCUUCUCUCCUCCUGCCU [hsa-miR-6886-3p] , if possible. -2.46

Moving on to the next sequence: GUACCUUCUGGUUCAGCUAGU [hsa-miR-4724-3p] 19.8

Same question, GUGAGUCAGGGUGGGGCUGG [hsa-miR-937-5p] this time -10.1

Also check CCAGCCACGGACUGAGAGUGCAU [hsa-miR-4691-3p] 26.3

Try this sequence next: UGUUGUCAUGUUUUUUCCCUAG [hsa-miR-6755-3p] 34.6

Next entry: AUGGCCAAAACUGCAGUUAUUUU [hsa-miR-548s] 14.5

Try this sequence next: ACAAAAAAAAAAGCCCAACCCUUC [hsa-miR-3613-3p] 16.2

Same question for AGAGCUCACAGCUGUCCUUCUCUA [hsa-miR-3670] please. -9.38

How about AUGCCUCCCCCGGCCCCGCAG [hsa-miR-6836-3p] ? -0.9

Please do the same for UCCUUCUGCUCCGUCCCCCAG [hsa-miR-1237-3p] as well. 6.7

Further, for ACCUGAAUUACCAAAAGCUUU [hsa-miR-3140-5p] ? 26.3

Another sequence to check: UACACAAGAAAACCAAGGCUCA [hsa-miR-4801] 20.3

###

- System: MCF10A
- experimental.details: 5+ nucleoli phenotype percent effect (relative to siNT 0% and siKIF11 100%); higher = more cells with five or more nucleoli
- conditions.used: 20 nM; 72 h
Lab note: anything with 5+ nucleoli phenotype percent effect at or over 20% counts as met; the rest go in not met.

Quick check, 5+ nucleoli phenotype percent effect >= 20%? CCCAAUACACGGUCGACCUCUU [hsa-miR-323b-3p] met

Subsequent entry: UCUAAAGACUAGACUUCGCUAUG [hsa-miR-4744] met

# iterate: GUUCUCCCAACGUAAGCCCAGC [hsa-miR-629-3p] met

How about this sequence: CCUCCGUGUUACCUGUCCUCUAG [hsa-miR-3605-3p] not met

Next sequence up: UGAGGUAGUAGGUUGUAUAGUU [hsa-let-7a-5p] met

Same read-out for UGUGGAAGGUAGACGGCCAGAGA [hsa-miR-3190-3p] ? not met

Now the same for AAAUAUAUAUAUAUAUGUACGUAU [hsa-miR-1277-5p] met

What about UAGGUAGAGUGUGAGGAGGAGGUC [hsa-miR-6831-5p] ? met

Field entry: GGCGGCGGGGAGGUAGGCAG [hsa-miR-8072] not met

Follow-up item: UGAGCUGCUGUACCAAAAU [hsa-miR-558] not met

Repeat with UCCCUGUCCUCCAGGAGCUCACG [hsa-miR-339-5p] not met

CGGCGCGACCGGCCCGGGG [hsa-miR-4634] ? met

Can you handle AUGUGAUUGACGGCUGACUCCA [hsa-miR-8070] next? not met

Next entry: CAGGGCCUCACUGUAUCGCCCA [hsa-miR-4512] not met

Field entry: CGUCUUACCCAGCAGUGUUUGG [hsa-miR-200c-5p] not met

One more sequence: AUACAUGUCAGAUUGUAUGCC [hsa-miR-4666a-5p] not met

Same again, this time with GAGAGCAGUGUGUGUUGCCUGG [hsa-miR-2278] not met

Now try CUGGGGAGAUCCUCGAGGUUGG [hsa-miR-3150a-3p] . not met

Check AUUGACACCUCUGUGAGUGGA [hsa-miR-514b-3p] too. not met

Note, next up: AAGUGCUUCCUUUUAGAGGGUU [hsa-miR-520f] met

Now this one: UGGAGUUAAGGGUUGCUUGGAGA [hsa-miR-4653-3p] not met

Now consider AGCCCCUGCCCACCGCACACUG [hsa-miR-210-5p] and answer again. met

And UUGCAGCUGCCUGGGAGUGACUUC [hsa-miR-1301] ? not met
